Where these numbers come from: ChEMBL document CHEMBL3352168

# assay-target: Prostaglandin G/H synthase 1 (Ovis aries) (UniProt P05979)
# Sequence (P05979 whole entry): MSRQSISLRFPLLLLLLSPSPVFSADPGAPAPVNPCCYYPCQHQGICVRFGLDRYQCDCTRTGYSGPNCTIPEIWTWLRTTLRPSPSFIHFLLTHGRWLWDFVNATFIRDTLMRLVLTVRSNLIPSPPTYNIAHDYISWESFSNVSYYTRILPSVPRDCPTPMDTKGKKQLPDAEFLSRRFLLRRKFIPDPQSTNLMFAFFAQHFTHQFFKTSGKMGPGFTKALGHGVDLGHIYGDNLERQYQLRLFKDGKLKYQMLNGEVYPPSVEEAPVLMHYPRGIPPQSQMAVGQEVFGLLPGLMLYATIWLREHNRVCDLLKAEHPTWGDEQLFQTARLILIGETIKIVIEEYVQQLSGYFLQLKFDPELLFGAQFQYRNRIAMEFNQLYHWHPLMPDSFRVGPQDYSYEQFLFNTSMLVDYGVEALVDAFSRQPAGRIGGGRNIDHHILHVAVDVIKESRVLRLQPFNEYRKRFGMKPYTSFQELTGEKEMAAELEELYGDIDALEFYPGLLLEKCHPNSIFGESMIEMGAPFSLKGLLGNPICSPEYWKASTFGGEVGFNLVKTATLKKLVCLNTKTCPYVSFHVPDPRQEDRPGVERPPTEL
# experiment-summary: Inhibition of ovine COX1 using fluorometric substrate at 100 uM by fluorescent inhibitor screening assay
Exercise: for every item that follows, state its recorded inhibition.
Write the answer as a number in %, unit excluded.

*Q* Name the reported inhibition value associated with the molecule NS(=O)(=O)c1ccc(N2CCN=C2c2cccc(Br)c2)cc1
*A* 12.9

*Q* Name the reported inhibition value associated with the molecule CC1CN(c2ccc(S(C)(=O)=O)cc2)C(c2ccc(F)cc2)=N1 (racemic)
*A* 6.3

*Q* Name the reported inhibition value associated with the molecule NS(=O)(=O)c1ccc(N2CCN=C2c2cccc(Cl)c2)cc1
*A* -8

*Q* Name the reported inhibition value associated with the molecule CC1CN(c2ccc(S(N)(=O)=O)cc2)C(c2ccc(F)cc2)=N1 (racemic)
*A* 5.5

*Q* Name the reported inhibition value associated with the molecule CS(=O)(=O)c1ccc(N2CCN=C2c2ccc(F)c(F)c2)cc1
*A* 9.2

*Q* Name the reported inhibition value associated with the molecule COc1ccc(C2=NCCN2c2ccc(S(N)(=O)=O)cc2)cc1F
*A* -5.5

*Q* Name the reported inhibition value associated with the molecule NS(=O)(=O)c1ccc(N2CCN=C2c2ccc(Cl)c(Cl)c2)cc1
*A* 8.7

* * *

# experiment-summary: Clearance in C57Bl mouse plasma at 10 mg/kg, po
# Format: ADME, organism-based
# Parameters: dose 10 mg/kg, route oral
parameter-measured: CL/F (mL/min/kg)
Write the answer as a number in mL/min/kg, unit excluded.

*Q* Name the reported CL/F value associated with the compound NS(=O)(=O)c1ccc(N2CCN=C2c2ccc(Cl)c(Cl)c2)cc1
*A* 13

* * *

# experiment-summary: Half life in C57Bl mouse plasma at 10 mg/kg, po
# Format: ADME, organism-based
# Design: dose 10 mg/kg, route oral
parameter-measured: half-life (h)
Write the answer as a number in h, unit excluded.

*Q* Name the reported half-life value associated with the compound NS(=O)(=O)c1ccc(N2CCN=C2c2ccc(Cl)c(Cl)c2)cc1
*A* 1.08

* * *

# experiment-summary: Tmax in C57Bl mouse brain at 10 mg/kg, po
# Format: ADME, organism-based
# Set-up: dose 10 mg/kg, route oral
parameter-measured: Tmax (min)
Write the answer as a number in min, unit excluded.

*Q* Name the reported Tmax value associated with the compound NS(=O)(=O)c1ccc(N2CCN=C2c2ccc(Cl)c(Cl)c2)cc1
*A* 30

* * *

# assay-target: Prostaglandin G/H synthase 1 (Ovis aries) (UniProt P05979)
# experiment-summary: Inhibition of ovine COX1 using fluorometric substrate at 100 uM by fluorescent inhibitor screening assay
Exercise: for every item that follows, state its recorded inhibition.
Write the answer as a number in %, unit excluded.

*Q* Name the reported inhibition value associated with the compound CS(=O)(=O)c1ccc(N2CCN=C2c2ccc(Cl)cc2)cc1
*A* 3.2

*Q* Name the reported inhibition value associated with the compound COc1ccc(C2=NCCN2c2ccc(S(N)(=O)=O)cc2)cc1Cl
*A* 3

*Q* Name the reported inhibition value associated with the compound CS(=O)(=O)c1ccc(N2CCN=C2c2cccc(Br)c2)cc1
*A* 12.6

*Q* Name the reported inhibition value associated with the compound CS(=O)(=O)c1ccc(N2CCN=C2c2ccc(F)cc2)cc1
*A* 12.6

*Q* Name the reported inhibition value associated with the compound CS(=O)(=O)c1ccc(N2CCN=C2c2ccc(Cl)c(Cl)c2)cc1
*A* 1.9

*Q* Name the reported inhibition value associated with the compound CC1CN(c2ccc(S(C)(=O)=O)cc2)C(c2ccc(Cl)cc2)=N1 (racemic)
*A* -5.2

*Q* Name the reported inhibition value associated with the compound NS(=O)(=O)c1ccc(N2CCN=C2c2cccc(F)c2)cc1
*A* -1.4

*Q* Name the reported inhibition value associated with the compound COc1ccc(C2=NCCN2c2ccc(S(C)(=O)=O)cc2)cc1F
*A* -1.6

*Q* Name the reported inhibition value associated with the compound CS(=O)(=O)c1ccc(N2CCN=C2c2cccc(F)c2)cc1
*A* 0.7

*Q* Name the reported inhibition value associated with the compound COc1ccc(C2=NCCN2c2ccc(S(C)(=O)=O)cc2)cc1Cl
*A* 1.2
